- target: GIPC2, Q8TF65
- Sequence (Q8TF65 112-203): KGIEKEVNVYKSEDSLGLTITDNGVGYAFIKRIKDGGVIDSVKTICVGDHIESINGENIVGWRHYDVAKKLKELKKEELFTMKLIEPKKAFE
- method description: holdup assay
- Parameters: key: below the threshold = too weak to quantify, mostly under pKd 3.1 to 4
- applied conditions: plain residues with an end cap or a label only (N-terminal biotin on a linker: ado-ado)
assay readout: pKd
Answer with a number only.

Reported pKd for TNSRHGETTV [FZD2, Q14332] : what is it? 4.22

Reported pKd for KPGKGSETVV [FZD4, Q9ULV1] : what is it? 3.57

Reported pKd for AEASVACSLC [PTGIR, P43119] : what is it? 3.75

Reported pKd for MQHQRTHTRV [ZSCAN30, Q86W11] : what is it? 3.48
